Target: T1, AtCyp59 full-length (Arabidopsis thaliana, UniProt Q6Q151 1-506)
T1 sequence: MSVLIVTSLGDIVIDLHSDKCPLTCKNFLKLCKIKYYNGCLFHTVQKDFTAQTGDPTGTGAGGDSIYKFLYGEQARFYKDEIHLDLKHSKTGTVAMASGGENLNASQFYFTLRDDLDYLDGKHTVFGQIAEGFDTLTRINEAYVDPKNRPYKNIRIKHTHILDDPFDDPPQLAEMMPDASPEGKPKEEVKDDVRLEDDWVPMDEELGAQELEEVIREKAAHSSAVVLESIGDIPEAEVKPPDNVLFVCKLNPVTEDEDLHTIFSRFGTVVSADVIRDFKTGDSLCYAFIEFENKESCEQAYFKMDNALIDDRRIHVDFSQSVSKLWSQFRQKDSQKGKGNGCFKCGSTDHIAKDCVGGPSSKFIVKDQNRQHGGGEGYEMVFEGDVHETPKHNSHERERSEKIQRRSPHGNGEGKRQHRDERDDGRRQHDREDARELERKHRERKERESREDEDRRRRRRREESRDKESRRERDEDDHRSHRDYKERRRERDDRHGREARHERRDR
Assay: EMSA
result.type: pKd
Answers are plain numbers, as −log10 of the molar value.

| binder | pKd |
| --- | --- |
| GCCGCCA (ssRNA) | 6.92 |
| GCCGCCG (ssRNA) | 6.92 |
| GGUGCCG (ssRNA) | 6.92 |
| GUCGCCA (ssRNA) | 6.92 |
| GUAGCCA (ssRNA) | 6.92 |

Hi there! I need pKd for each item below, if you can.
1. GUUGCCG (ssRNA)
2. GAUGCCA (ssRNA)
3. GUGGCCA (ssRNA)
4. GGAGCCA (ssRNA)

6.92
6.92
6.92
6.92
